Values from patent US20230102339A1

Experimental System: T1, human GLP-1 receptor (hGLP-1R) (human, UniProt P43220 24-463)
T1 construct: The cAMP assay used HEK-293 clonal cells expressing it; no signal peptide limits are stated
Procedure Summary: radioligand competition binding, SPA, membranes of HEK293 cells overexpressing hGLP-1R, with bacitracin
pKi: −log10 of the molar value.
// values below are reported pKi
Reported Property: pKi

INSERT INTO measurements (binder, numeric_readout) VALUES
  ('YXQGTXTSDYSILLDXKAQXAFIEYLLEGGPSSGEPPPE (Aib at 2; αMeF(2F) at 6; Orn (O) at 16; K17 conjugated on the epsilon-amino group with 2-[2-(2-amino-ethoxy)-ethoxy]-acetyl-γE-CO-(CH2)18-CO2H; 4Pal at 20; C-terminal amide (E39-NH2), Synthetic acylated 39-residue peptide, obtained as TFA salt) [Example 1 (Incretin Analog 1)]', 8.34),
  ('YXQGTXTSDYSIXLDXKAQXAFIEXLLEGGPSSGEPPPS (Aib at 2; αMeF(2F) at 6; αMeL at 13; Orn (O) at 16; K17 conjugated on the epsilon-amino group with 2-[2-(2-amino-ethoxy)-ethoxy]-acetyl-γE-CO-(CH2)18-CO2H; Iva at 20; αMeY at 25; C-terminal amide (S39-NH2), Synthetic acylated 39-residue peptide) [Example 2 (Incretin Analog 2)]', 8.60),
  ('YXQGTXTSDXSIXLDXKAQXXFIXXLLEGGPSSGEPPPS (Aib at 2; αMeF(2F) at 6; 4Pal at 10; αMeL at 13; Orn (O) at 16; K17 conjugated on the epsilon-amino group with 2-[2-(2-amino-ethoxy)-ethoxy]-acetyl-γE-CO-(CH2)18-CO2H; αMeL at 20; Aib at 21; D-glutamic acid (e) at 24; αMeY at 25; C-terminal amide (S39-NH2), Synthetic acylated 39-residue peptide) [Example 3 (Incretin Analog 3)]', 8.44);
